Measured solubility in Crodamol DA, listed per entry for reference.
- ASSAY_PROCEDURE: Solubility measurement in cosmetic solvents (saturated solution, UV spectroscopy)
- MEASUREMENT_CONTEXT: Crodamol DA (diisopropyl adipate), room temperature, 18 hours
Enter your answer as a number in %; do not include the unit.

Examples with answers:
MOLECULE | RECORDED_RESULT
CCOC(=O)C(=Cc1ccc(-c2nc3ccc(O)cc3o2)cc1)C(=O)OCC | 1.6
CCCCC(CC)COC(=O)/C(C#N)=C/c1ccc(-c2nc3ccccc3o2)cc1 (stereo not shown) | 2.8
CCCCC(CC)COC(=O)/C(C#N)=C/c1ccc(-c2nc3cc(C(C)(C)C)ccc3o2)cc1 (stereo not shown) | 7.4

In: Identify measured solubility in Crodamol DA associated with `CCOC(=O)C(=Cc1ccc(-c2nc3ccccc3o2)cc1)C(=O)OCC`
Out: 11

====

Listed here: items and their measured melting point.

COMPOUND | RECORDED_RESULT
CCCCC(CC)COc1ccc2nc(-c3ccc(C=C(C(=O)OCC)C(=O)OCC)cc3)oc2c1 (stereo not drawn) | 50 to 52 °C
CCOC(=O)C(=Cc1ccc(-c2nc3ccc(O)cc3o2)cc1)C(=O)OCC | 153 to 155 °C
CCCCC(CC)COC(=O)/C(C#N)=C/c1ccc(-c2nc3ccccc3o2)cc1 (stereo not drawn) | 84 to 85 °C
CCOC(=O)C(=Cc1ccc(-c2nc3ccccc3o2)cc1)C(=O)OCC | 99 to 102 °C
CCOCCOCCOc1ccc2nc(-c3ccc(C=C(C(=O)OCC)C(=O)OCC)cc3)oc2c1 | 43 to 45 °C

Let us move to another entry and its melting point.
In: Name the recorded melting point of the compound listed here: CCCCC(CC)COC(=O)/C(C#N)=C/c1ccc(-c2nc3cc(C(C)(C)C)ccc3o2)cc1 (stereo not drawn)
Out: 80 to 81 °C

====

- ASSAY_PROCEDURE: Solubility measurement in cosmetic solvents (saturated solution, UV spectroscopy)
- MEASUREMENT_CONTEXT: Cétiol LC (cocoyl caprylate caprate), room temperature, 18 hours
OUTCOME_MEASURE: solubility in Cétiol LC (%)
State just the number; it will be interpreted in %.

Examples with their reported solubility in Cétiol LC follow.
MOLECULE | solubility in Cétiol LC / %
CCCCC(CC)COC(=O)/C(C#N)=C/c1ccc(-c2nc3cc(C(C)(C)C)ccc3o2)cc1 (centres unmarked) | 3.8
CCOC(=O)C(=Cc1ccc(-c2nc3ccccc3o2)cc1)C(=O)OCC | 4.5
CCCCC(CC)COc1ccc2nc(-c3ccc(C=C(C(=O)OCC)C(=O)OCC)cc3)oc2c1 (centres unmarked) | 10.2
CCCCC(CC)COC(=O)/C(C#N)=C/c1ccc(-c2nc3ccccc3o2)cc1 (centres unmarked) | 1.6

Then there is this molecule:
In: Return the recorded solubility in Cétiol LC value; entry: `CCOCCOCCOc1ccc2nc(-c3ccc(C=C(C(=O)OCC)C(=O)OCC)cc3)oc2c1`
Out: 4.6
